test: Reversal of LPS-induced RGS10 silencing in mouse single close BV-2 cells assessed as RGS10 protein level by measuring LPS response measured after 24 hrs by Nano-Glo HiBit Lytic detection assay; assay type: functional; parameters: concentration or dose not given beside the values
propertyMeasured: Activity (%)
# output: bare number, implied unit %

Some solved cases for reference:
1. O=C(CN1C(=O)NC(c2ccc(Cl)cc2)C2=C1COC2=O)Nc1cc(F)cc(F)c1 (centres undefined)
80.4
2. CCc1cc(-c2csc(S(=O)(=O)Nc3ccc(C)cc3Br)c2)on1
104.1
3. Cc1oc(-c2ccc(Cl)cc2)nc1CN1CCCC(C(=O)N2CCN(C(=O)c3ccco3)CC2)C1 (centres undefined)
116.9

As a next step, examine the molecule that follows.
For this molecule ( COCCOC1CCN(C(=O)Nc2ccc(C(=O)OC)cc2)CC1 ), measured Activity is 121.7

====

Listing of recorded Activity by entry.
experiment: Reversal of LPS-induced RGS10 silencing in mouse single close BV-2 cells assessed as RGS10 protein level by measuring LPS response measured after 24 hrs by Nano-Glo HiBit Lytic detection assay; assay type: functional; set-up: concentration or dose not given beside the values
# output: bare number, implied unit %

1. Cc1cc(C)c2c(=O)cc(CN(Cc3ccccc3)Cc3ccco3)[nH]c2c1
92.8
2. COc1cccc(CNC(=O)c2ccc3c(Cl)c4c(nc3c2)CCCC4)c1
97.4

As a next step, examine the molecule that follows.
For this molecule ( COc1ccc(C2NC(=O)N(CC(=O)N3CCCCCC3)C3=C2C(=O)OC3)cc1 (stereo not given) ), measured Activity is 87.4

====

assay: Reversal of LPS-induced RGS10 silencing in mouse single close BV-2 cells assessed as RGS10 protein level by measuring LPS response measured after 24 hrs by Nano-Glo HiBit Lytic detection assay; format: functional; parameters: concentration or dose not given beside the values
Listing of recorded Activity by entry.
# output: bare number, implied unit %

1) CC1=NS(=O)(=O)N(C)C=C1C(=O)OCc1nc(-c2cccc(F)c2)no1
90.3
2) O=C(Nc1ccc(F)cc1)c1cc2n(n1)CC(c1ccc3c(c1)OCO3)OC2 (configuration not stated)
105.3
3) CCNc1ncnc2sc3c(c12)CCN(Cc1ccncc1)C3
89.5

For this compound ( Cc1cccc(-n2c(=O)c3c(cc(C)n3C)n(CC(=O)Nc3ccc(C(F)(F)F)cc3)c2=O)c1 ), measured Activity is 113.8

For this compound ( Cc1cc(C)cc(Nc2nc(C)cc(=O)n2CC(=O)Nc2cccc(C#N)c2)c1 ), measured Activity is 105.8

For this compound ( CCOc1ccc(-c2nc(C3CC(=O)N(c4ccc(C)cc4)C3)no2)cc1 (configuration not stated) ), measured Activity is 104.7

For this compound ( O=C(CN1C(=O)NC(c2ccc(Cl)cc2)C2=C1COC2=O)Nc1ccc(F)c(F)c1 (configuration not stated) ), measured Activity is 84.1
